Tested on: ICK
measurementConditions: Compound Concentration (nM):1000;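 note: KINOMEscan scanMAX binding as percent activity remaining versus control; lower means stronger binding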
valueKind: Percent Control (%)
Provide the reading as a plain figure in %.

compound="COc1ccc(COc2ccc(Cc3cnc(N)nc3N)cc2OC)cc1 [GW632580X]" recordednumber=99
compound=O=C(Nc1n[nH]c2nc(-c3ccc(O)cc3)c(Br)cc12)C1CC1 recordednumber=1

Input line: Give ICK Percent Control for CCn1c(-c2nonc2N)nc2c(C#CC(C)(C)O)nc(OCCNC)cc21.Cl
Output line: 100

Input line: Request: Percent Control, test system ICK, entry COc1cc(/C=N/Nc2ncnc3[nH]ncc23)ccc1O [GW578748X]
Output line: 75

###

System: NDR1
Construct: gene STK38
measurementConditions: Compound Concentration (nM):1000
Examples of compounds with documented Percent Control follow.
Kindly answer with a numeric value in %, unit omitted.

Input line: What value of Percent Control has been recorded for this entry: COc1cccc(-n2ncc3c(N/N=C/c4ccncc4)ncnc32)c1 [GW784752X]
Output line: 96

Input line: Which Percent Control reading was recorded for the compound C[C@@H](Oc1cc(-n2cnc3ccc(OC4CCN(C)CC4)cc32)sc1C(N)=O)c1ccccc1Cl [GSK579289A] ?
Output line: 98

Input line: Quick one: Percent Control for COc1cc(/C=N/Nc2ncnc3[nH]ncc23)ccc1O [GW578748X] ?
Output line: 73

Input line: Consider the compound shown here: CCS(=O)(=O)c1ccc(OC)c(Nc2ncc(-c3cccc(F)c3)o2)c1 [GW621970X] What is its recorded Percent Control?
Output line: 100

Input line: Reported Percent Control, compound CC1=C(C(=O)Nc2ccc3[nH]ncc3c2)C(c2ccc(Cl)c(Cl)c2)CC(=O)N1 (stereo not shown) [GSK299115A] : ____
Output line: 21

Input line: Which Percent Control is reported for this compound? CCc1ccc(Oc2nccc(-c3c(-c4ccc(F)cc4)ncn3C3CCNCC3)n2)cc1 [SB-242719]
Output line: 92

Input line: For the compound COc1cc2ncn(-c3cc(O[C@H](C)c4ccccc4Cl)c(C(N)=O)s3)c2cc1OC [GSK237701A] , what Percent Control is on record?
Output line: 84

###

Test system: RSK4(Kin.Dom.1-N-terminal)
Construct: gene RPS6KA6
measurementConditions: Compound Concentration (nM):1000
valueKind: Percent Control
Dear colleague, please send the value followed by its unit.

compound="CN(C)CCNC(=O)Nc1ccc(N(C)c2ccnc(Nc3ccc(CS(C)(=O)=O)cc3)n2)cc1.Cl [GW830900A]" result=74%
compound="CCS(=O)(=O)c1ccc(OC)c(Nc2ncc(-c3cccc(OC)c3)o2)c1 [GW580509X]" result=94%
compound=COc1cc(C)c(N(C)C(=O)CN(C)C)cc1Nc1nc(Nc2cccc(F)c2C(N)=O)c2cc[nH]c2n1 result=75%
compound="CC1=C(C(=O)Nc2ccc3[nH]ncc3c2)C(c2ccc(Cl)c(Cl)c2)CC(=O)N1 (centres unmarked) [GSK299115A]" result=69%

Input line: Form field - read-out: Percent Control; system: RSK4(Kin.Dom.1-N-terminal); submitted item: Cl.O=C(O[C@H]1CN[C@H](C#Cc2cc3ncnc(Nc4ccc5c(cnn5Cc5ccccc5)c4)c3s2)C1)N1CCOCC1 [GSK200398A]
Output line: 80%

Input line: Find the measured Percent Control: item Cl.O=C(Nc1ccc(Oc2ccc3[nH]c(NC(=O)c4ccccc4)nc3c2)cc1)Nc1cc(C(F)(F)F)ccc1F [GW709042A] , target or system RSK4(Kin.Dom.1-N-terminal).
Output line: 99%

Input line: Form: Entry = COc1cccc(-n2ncc3c(N/N=C/c4ccncc4)ncnc32)c1 [GW784752X] | System = RSK4(Kin.Dom.1-N-terminal) | Percent Control = ____
Output line: 94%

Input line: Could you share what Percent Control was measured for Cl.c1ccc(Cc2nc3ccc(Nc4ncnc5ccccc45)cc3[nH]2)cc1 [GR269666A] , tested on RSK4(Kin.Dom.1-N-terminal)?
Output line: 100%

###

System: ACVRL1
measurementConditions: Compound Concentration (nM):1000
Each record is given MET if its reported Percent Control is strictly below 60%. Records at or above 60% are given NOT MET.

compound="Cc1cc(O)cc(C)c1/C=C/c1cncc(C(N)=O)c1 [GW435821X]" cat=MET
compound=COc1ccc2cc(-c3c(-c4ccncc4)nc(-c4ccc(S(C)(=O)=O)cc4C)n3C)ccc2c1 cat="NOT MET"
compound="CCS(=O)(=O)c1ccc(OC)c(Nc2ncc(-c3cccc(OC)c3)o2)c1 [GW580509X]" cat=MET
compound="CC1=C(C(=O)Nc2ccc3[nH]ncc3c2)C(c2ccc(Cl)c(Cl)c2)CC(=O)N1 (centres unmarked) [GSK299115A]" cat="NOT MET"
compound="C/C(Nc1ccc(S(N)(=O)=O)cc1)=C1/C(=O)Nc2ccccc21 [GW335962X]" cat="NOT MET"
compound=O=C(Nc1n[nH]c2nc(-c3ccc(O)cc3)c(Br)cc12)C1CC1 cat="NOT MET"

Input line: Given the entry CCc1ccc(Oc2nccc(-c3c(-c4ccc(F)cc4)ncn3C3CCNCC3)n2)cc1 , would its reported Percent Control be below 60%?
Output line: NOT MET

Input line: Please determine if COc1cccc(-n2ncc3c(N/N=C/c4ccncc4)ncnc32)c1 [GW784752X] is below 60% in terms of Percent Control.
Output line: MET

Input line: Determine if COc1cc(C)c(N(C)C(=O)CN(C)C)cc1Nc1nc(Nc2cccc(F)c2C(N)=O)c2cc[nH]c2n1 shows Percent Control strictly lower than 60%.
Output line: NOT MET

Input line: Please indicate whether the reported Percent Control of CC(C)COC(=O)c1ccc2c(c1)/C(=C/Nc1ccc(S(N)(=O)=O)cc1)C(=O)N2 [GW416981X] is strictly below 60%.
Output line: NOT MET

Input line: Item CCn1c(-c2nonc2N)nc2c(C#CC(C)(C)O)nc(OCCNC)cc21.Cl : Percent Control beneath 60%, strictly?
Output line: NOT MET

Input line: Lab log: compare recorded Percent Control with 60%; is it strictly lower for Cl.O=S1CCN(Cc2ccc(-c3ccc4ncnc(Nc5ccc(OCc6ccccc6)c(F)c5)c4c3)o2)CC1 [GW576924A] ?
Output line: NOT MET

Input line: Lab note: Percent Control threshold 60%. Does this compound come in strictly under it? COC(=O)Nc1nc2ccc(Oc3ccc(NC(=O)Nc4cc(C(F)(F)F)ccc4F)cc3)cc2s1.Cl [GW693917A]
Output line: NOT MET

Input line: Quick check: Percent Control of Cl.c1ccc(Cc2nc3ccc(Nc4ncnc5ccccc45)cc3[nH]2)cc1 [GR269666A] under 60%?
Output line: NOT MET

Input line: Hi there! Is Percent Control for Cl.O=C(Nc1ccc(Oc2ccc3[nH]c(NC(=O)c4ccco4)nc3c2)cc1)Nc1cc(C(F)(F)F)ccc1F [GW683134A] below 60%, do you know?
Output line: NOT MET

Input line: For this compound, is Percent Control lower than 60%? COc1cc2ncnc(Nc3ccc4c(cnn4Cc4ccccc4)c3)c2cc1OC.Cl [GW282449A]
Output line: NOT MET

###

Test system: EGFR(L861Q)
measurementConditions: Compound Concentration (nM):1000
Recorded Percent Control by entry
Note: unit % is implicit; provide only the numeric part.

Example compounds with recorded Percent Control:
compound="NS(=O)(=O)c1ccc(Nc2ncc(-c3ccccc3)o2)cc1 [GW572399X]" valuekind="Percent Control" recordednumber=100
compound="COc1cccc(-n2ncc3c(N/N=C/c4ccncc4)ncnc32)c1 [GW784752X]" valuekind="Percent Control" recordednumber=77
compound="NS(=O)(=O)c1ccc(N/N=C2\\C(=O)Nc3ccc(C(=O)NCc4ccncc4)cc32)cc1 [GW300657X]" valuekind="Percent Control" recordednumber=91

Input line: Give the measured Percent Control of CC(C)COC(=O)c1ccc2c(c1)/C(=C/Nc1ccc(S(N)(=O)=O)cc1)C(=O)N2 [GW416981X] .
Output line: 8.8

Input line: Reported Percent Control, compound CN(C)CCNC(=O)Nc1ccc(N(C)c2ccnc(Nc3ccc(CS(C)(=O)=O)cc3)n2)cc1.Cl [GW830900A] : ____
Output line: 100

Input line: # query: Percent Control of entry CC1=C(C(=O)Nc2ccc3[nH]ncc3c2)C(c2ccc(Cl)c(Cl)c2)CC(=O)N1 (centres unmarked) [GSK299115A]
Output line: 86

Input line: For the compound NS(=O)(=O)c1ccc(N/N=C2\C(=O)Nc3ccc(C(=O)NCCc4c[nH]cn4)cc32)cc1 [GW300660X] , what Percent Control is on record?
Output line: 85

Input line: Give its Percent Control value. Item: CCc1ccc(Oc2nccc(-c3c(-c4ccc(F)cc4)ncn3C3CCNCC3)n2)cc1 [SB-242719]
Output line: 58

###

System: CSNK1A1L
measurementConditions: Compound Concentration (nM):1000
Property: Percent Control; scope: individual compounds
Record the value in %, omitting the unit from your answer.

Known Percent Control results, listed for orientation:
compound="COc1cc(C=NNc2ncnc3c2cnn3-c2ccccc2)ccc1O [GW513184X]" recordednumber=100
compound="CC1=C(C(=O)Nc2ccc3[nH]ncc3c2)C(c2ccc(Cl)c(Cl)c2)CC(=O)N1 (stereo not shown) [GSK299115A]" recordednumber=66

Input line: Query: Percent Control; subject: Cl.O=S1CCN(Cc2ccc(-c3ccc4ncnc(Nc5ccc(OCc6ccccc6)c(F)c5)c4c3)o2)CC1 [GW576924A]
Output line: 100

Input line: Would you mind telling me what Percent Control value was observed for CCn1c(-c2nonc2N)nc2c(C#CC(C)(C)O)nc(OCCNC)cc21.Cl [GSK949675] ?
Output line: 100

Input line: # query: Percent Control of entry C[C@@H](Oc1cc(-n2cnc3ccc(OC4CCN(C)CC4)cc32)sc1C(N)=O)c1ccccc1Cl [GSK579289A]
Output line: 89

Input line: If you can, please state the reported Percent Control value of CCS(=O)(=O)c1ccc(OC)c(Nc2ncc(-c3cccc(OC)c3)o2)c1 [GW580509X] .
Output line: 100

Input line: Bench note: what Percent Control did O=C1Nc2ccc(C(=O)c3ccco3)cc2C1=Cc1cc(Cl)c(O)c(Cl)c1 [GW406108X] show?
Output line: 100
